Data provenance: patent US11760764B2

Biological target: PD-1/PD-L1 interaction (PDL1-6×His protein, PD1-Fc-Avi-Biotin protein) (Homo sapiens, UniProt Q9NZQ7)
Sequence (Q9NZQ7 19-238 limits assumed): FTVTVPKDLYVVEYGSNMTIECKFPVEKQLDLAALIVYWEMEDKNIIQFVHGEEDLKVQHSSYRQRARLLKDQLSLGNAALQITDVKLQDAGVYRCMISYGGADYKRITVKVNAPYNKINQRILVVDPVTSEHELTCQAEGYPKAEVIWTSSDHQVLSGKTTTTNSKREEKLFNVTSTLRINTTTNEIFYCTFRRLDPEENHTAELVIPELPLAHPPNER
Test: PDL1/PD1 Binding Assay
Details: Table C; 0.3 nM PDL1, 2.5 nM PD1; read-out: PD-1/PD-L1 PPI IC50
Protocol: Compounds to be tested were serially diluted in DMSO, and further diluted in assay buffer (25 mM Hepes pH 7.4, 150 mM NaCl, 0.005% Tween 20, BSA 0.01%). Diluted compounds were added to the wells with final concentration of DMSO at 1%. […] The plates were sealed with foil and incubated in the dark for additional 1 h or overnight before reading on an Envision reader. The IC50s were determined by fitting the curves using a four-parameter equation in Graphpad Prism 8.
IC50 values by entry

{"columns": ["molecule", "IC50"],
 "data": [
  ["O=C(O)C[C@H](O)CN1CCc2nc(-c3cccc(-c4cccc(-c5ccc6c(n5)CCN(C[C@@H](O)CC(=O)O)C6)c4Cl)c3Cl)ccc2C1", "100 to 1000 nM"],
  ["COc1nc(-c2cccc(-c3cccc(-c4cc5c(c(OC)n4)[C@@H](N4CC6(CCC(=O)N6)C4)CC5)c3Cl)c2F)cc2c1[C@@H](N1CC3(CCC(=O)N3)C1)CC2 (single isomer, unassigned)", "≤ 10 nM"],
  ["CC(=O)N1CC(N2CCOc3nc(-c4cccc(-c5cccc(-c6ccc7c(n6)OCCN(C6CN(C(C)=O)C6)C7)c5Cl)c4Cl)ccc3C2)C1", "> 10000 nM"],
  ["N[C@H]1CCc2cc(-c3cccc(-c4cccc(-c5ccc6c(c5)CC[C@@H]6N)c4Cl)c3Cl)ccc21", "100 to 1000 nM"],
  ["O=C(O)CN1CCc2ccc(-c3cccc(-c4cccc(-c5ccc6c(c5)CN(CC(=O)O)CC6)c4Cl)c3Cl)cc2C1", "≤ 10 nM"],
  ["Clc1c(-c2ccc3c(c2)CCNC3)cccc1-c1cccc(-c2ccc3c(c2)CCNC3)c1Cl", "≤ 10 nM"],
  ["CCOC(=O)CN[C@H]1CCc2cc(-c3cccc(-c4cccc(-c5ccc6c(c5)CC[C@@H]6NCC(=O)OCC)c4Cl)c3Cl)ccc21", "100 to 1000 nM"],
  ["CC1Cc2cc(-c3cccc(-c4cccc(-c5ccc6c(c5)CC(C)N(C[C@@H](O)CC(=O)O)C6)c4Cl)c3Cl)ccc2CN1C[C@@H](O)CC(=O)O (stereo partly drawn)", "≤ 10 nM"],
  ["COc1nc(-c2cccc(-c3cccc(-c4cc5c(c(OC)n4)[C@@H](NC[C@@H]4CCC(=O)N4)CC5)c3Cl)c2F)cc2c1[C@@H](NC[C@@H]1CCC(=O)N1)CC2", "≤ 10 nM"],
  ["CC(=O)NCCNC1Cc2ccc(-c3cccc(-c4cccc(-c5ccc6c(c5)CC(NCCNC(C)=O)C6)c4Cl)c3Cl)cc2C1 (stereo not drawn)", "10 to 100 nM"],
  ["Cc1cc2c(cc1-c1cccc(-c3cccc(-c4cc5c(cc4C)CNCC5)c3Cl)c1Cl)CCNC2", "100 to 1000 nM"],
  ["O=C(O)C[C@H](O)CN1CCc2cc(-c3cccc(-c4cccc(-c5cc6c(cn5)CN(C[C@@H](O)CC(=O)O)CC6)c4Cl)c3Cl)ncc2C1", "10 to 100 nM"]
]}
